Hey, just so you know, these numbers are from patent US20200165324A1.

- system_tested: stabilized BG505 SOSIP construct MD39 (HIV isolate BG505)
- protocol_description: competition ELISA on MD39 vs Self

binder | competition value
NC-Cow5 (antibody) VH: QVQLQESGPSLVKPSQTLSLTCMVSGFSLNDKAVGWVRQAPGKALEWLGSIDAGGSTGYNPGLKSRLSISKDNSKNQVSLSVSSVTTEDSATYYCGTVHQRTQPKQTCPNGYSDDSALRYYSRCSDRDCWRCTGTTYYDTCQCSSYTYIHTYELYVDAWGQGLLVTVSS VL: QDVLTQPSSVSGSLGQRVSITCSGSSSNVGNGYVSWYQLIPGSAPRTLIYGDTSRASGVPDRFSGSRSGNTATLTISSLQAEDEADYFCASPEDSSSNAVFGSGTTLTVL | 37
